MEASURED TARGET: T1, RBFOX1 RRM (Homo sapiens, UniProt Q9NWB1 109-208)
T1 sequence: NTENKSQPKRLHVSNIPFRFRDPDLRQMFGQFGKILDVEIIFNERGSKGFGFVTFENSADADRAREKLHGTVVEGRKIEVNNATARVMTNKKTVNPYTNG
RUN DESCRIPTION: EMSA; HiTS-Eq, 1 nM pool, 10 min; buffer printed only for the single-RNA assays: 10 mM Tris pH 7.5, 150 mM NaCl, 3.4 mM EDTA, 0.001% NP-40, 30 C
SETTINGS: tags: His6 N-terminal (pET28a); label: 5' 32P
Over roughly 16,000 sequences, “ka relative to ugcaugu” has its median near 0.0091; the highest 2% begin near 0.032. The sample as a whole holds a higher share of the highest values than the screen did.
EXPERIMENTAL ENDPOINT: binding signal

[
  {
    "BINDER": "CUGCUGC (DNA:RNA) RNA: GGGAGACCGGAAUUCAGAUUGUCCCUGCUGCUUAAAUCCCGUCGUAGCCACCA DNA 1: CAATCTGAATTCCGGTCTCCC DNA 2: TGGTGGCTACGACGGGATT",
    "EXPERIMENTAL ENDPOINT": "binding signal",
    "RESULT": "0.0217 KA relative to UGCAUGU"
  },
  {
    "BINDER": "CCCCUGC (DNA:RNA) RNA: GGGAGACCGGAAUUCAGAUUGUCCCCCCUGCUUAAAUCCCGUCGUAGCCACCA DNA 1: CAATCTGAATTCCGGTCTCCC DNA 2: TGGTGGCTACGACGGGATT",
    "EXPERIMENTAL ENDPOINT": "binding signal",
    "RESULT": "0.00603 KA relative to UGCAUGU"
  }
]
